viability, T/C listing for selected compounds.
- Tested on: 252836-082-R-J2-PDC tumor spheroids, viability;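 also: spheroids exposed to agents for seven days before readout; percent of vehicle DMSO control viability so 100% = untreated growth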
- RUN DESCRIPTION: Anticancer human tumor 252836-082-R-J2-PDC patient-derived head and neck squamous cell carcinoma cell line growth inhibition [PI3K]
- STATED CONDITIONS: second compound 0.0316 µM; first compound 0.316 µM; stronger effect = lower value; spheroids with HUVEC and MSC
Kindly answer with a numeric value in %, unit omitted.

Ask: Reported viability, T/C for Cn1ncc(Cl)c1-c1cc(C(=O)NC(CN)Cc2cccc(F)c2)sc1Cl (stereo unspecified) + COc1c(OCCCN2CCOCC2)ccc2c3n(c(=NC(=O)c4cnc(N)nc4)nc12)CCN3 : what is it?
Reply: 50

Ask: Please give the result for CC(Cn1ccc(-c2ccc(C#N)c(Cl)c2)n1)NC(=O)c1cc(C(C)O)[nH]n1 (stereo unspecified) + Cc1nc(NC(=O)N2CCCC2C(N)=O)sc1-c1ccnc(C(C)(C)C(F)(F)F)c1 too.
Reply: 96

Ask: Please give the result for CC1(C)CCC(CN2CCN(c3ccc(C(=O)NS(=O)(=O)c4ccc(NCC5CCOCC5)c([N+](=O)[O-])c4)c(Oc4cnc5[nH]ccc5c4)c3)CC2)=C(c2ccc(Cl)cc2)C1 + CC(Nc1ncnc2nc[nH]c12)c1cc2cccc(Cl)c2c(=O)n1-c1ccccc1 too.
Reply: 95.9

Ask: Please give the result for Cn1nccc1Nc1nccc(-c2ccn(C(CO)c3ccc(Cl)c(F)c3)c(=O)c2)n1 (stereo unspecified) + CC(Nc1ncnc2nc[nH]c12)c1cc2cccc(Cl)c2c(=O)n1-c1ccccc1 too.
Reply: 91.9

Ask: Please give the result for Cn1nccc1Nc1nccc(-c2ccn(C(CO)c3ccc(Cl)c(F)c3)c(=O)c2)n1 (stereo unspecified) + CC(Nc1ccc2c(c1)OCCn1cc(N3C(=O)OCC3C(F)F)nc1-2)C(N)=O too.
Reply: 69.8

Ask: Please give the result for C[C@@H](NC(=O)c1ncnc(N)c1Cl)c1ncc(C(=O)Nc2cc(C(F)(F)F)c(Cl)cn2)s1 + CC(Nc1ccc2c(c1)OCCn1cc(N3C(=O)OCC3C(F)F)nc1-2)C(N)=O too.
Reply: 81.5

Ask: Please give the result for C=CC(=O)N1CCN(c2nc(=O)n(-c3c(C)ccnc3C(C)C)c3nc(-c4c(O)cccc4F)c(F)cc23)C(C)C1 (stereo unspecified) + Cc1nc(NC(=O)N2CCCC2C(N)=O)sc1-c1ccnc(C(C)(C)C(F)(F)F)c1 too.
Reply: 104

Ask: Please give the result for CC(Cn1ccc(-c2ccc(C#N)c(Cl)c2)n1)NC(=O)c1cc(C(C)O)[nH]n1 (stereo unspecified) + CC(Nc1ncnc2nc[nH]c12)c1cc2cccc(Cl)c2c(=O)n1-c1ccccc1 too.
Reply: 96.6

Ask: Please give the result for CNC(=O)c1ccc(N2C(=S)N(c3ccc(C#N)c(C(F)(F)F)c3)C(=O)C2(C)C)cc1F + Cc1nc(NC(=O)N2CCCC2C(N)=O)sc1-c1ccnc(C(C)(C)C(F)(F)F)c1 too.
Reply: 103

Ask: Please give the result for CC1(C)CCC(Nc2ncc(C(F)(F)F)c(-c3c[nH]c4c(P(C)(C)=O)c(C#N)ccc34)n2)CN1 (stereo unspecified) + COc1c(OCCCN2CCOCC2)ccc2c3n(c(=NC(=O)c4cnc(N)nc4)nc12)CCN3 too.
Reply: 22.7

Ask: Please give the result for Cn1ncc(Cl)c1-c1cc(C(=O)NC(CN)Cc2cccc(F)c2)sc1Cl (stereo unspecified) + CC(Nc1ncnc2nc[nH]c12)c1cc2cccc(Cl)c2c(=O)n1-c1ccccc1 too.
Reply: 63.8

Ask: Please give the result for CCCS(=O)(=O)Nc1ccc(F)c(C(=O)c2c[nH]c3ncc(-c4ccc(Cl)cc4)cc23)c1F + Cc1nc(NC(=O)N2CCCC2C(N)=O)sc1-c1ccnc(C(C)(C)C(F)(F)F)c1 too.
Reply: 79.9

Ask: Please give the result for CC(Cn1ccc(-c2ccc(C#N)c(Cl)c2)n1)NC(=O)c1cc(C(C)O)[nH]n1 (stereo unspecified) + COc1c(OCCCN2CCOCC2)ccc2c3n(c(=NC(=O)c4cnc(N)nc4)nc12)CCN3 too.
Reply: 62.6

Ask: Please give the result for C=CC(=O)N1CCN(c2nc(=O)n(-c3c(C)ccnc3C(C)C)c3nc(-c4c(O)cccc4F)c(F)cc23)C(C)C1 (stereo unspecified) + COc1c(OCCCN2CCOCC2)ccc2c3n(c(=NC(=O)c4cnc(N)nc4)nc12)CCN3 too.
Reply: 55.3

Ask: Please give the result for C=CC(=O)N1CCN(c2nc(=O)n(-c3c(C)ccnc3C(C)C)c3nc(-c4c(O)cccc4F)c(F)cc23)C(C)C1 (stereo unspecified) + CC(Nc1ncnc2nc[nH]c12)c1cc2cccc(Cl)c2c(=O)n1-c1ccccc1 too.
Reply: 103

Ask: Please give the result for CNC(=O)c1ccc(N2C(=S)N(c3ccc(C#N)c(C(F)(F)F)c3)C(=O)C2(C)C)cc1F + CC(Nc1ncnc2nc[nH]c12)c1cc2cccc(Cl)c2c(=O)n1-c1ccccc1 too.
Reply: 91.7
